growth AUC values by entry
# System: Coprococcus comes
# measurement protocol: growth AUC relative to DMSO control (median of replicates) (fraction); higher = more growth (less inhibition), active = hit call of the paper
# condition notes: 20 µM; 24 h
Answer with the value's number alone.

Recorded growth AUC for O=S1(=O)OCC2C(CO1)C1(Cl)C(Cl)=C(Cl)C2(Cl)C1(Cl)Cl (stereo not given) , please?
1.01

Recorded growth AUC for COc1cc(OC)n2nc(S(=O)(=O)Nc3c(Cl)ccc(C)c3Cl)nc2n1 , please?
1.02

Recorded growth AUC for CC(C)(C)C(O)C(Oc1ccc(-c2ccccc2)cc1)n1cncn1 (mixture of isomers) , please?
1

Recorded growth AUC for CCC(CC)Nc1c([N+](=O)[O-])cc(C)c(C)c1[N+](=O)[O-] , please?
0.982

Recorded growth AUC for O=NN(CCO)CCO , please?
1.01

Recorded growth AUC for CCOC(=O)C(C)OC(=O)c1cc(Oc2ccc(C(F)(F)F)cc2Cl)ccc1[N+](=O)[O-] (stereo not given) , please?
0.933

Recorded growth AUC for CC(C)(C)N(NC(=O)c1ccc(Cl)cc1)C(=O)c1ccccc1 , please?
0.995

Recorded growth AUC for COP(=O)(OC)C(O)C(Cl)(Cl)Cl (stereo not given) , please?
1.03

Recorded growth AUC for CCCCN(CC)c1c([N+](=O)[O-])cc(C(F)(F)F)cc1[N+](=O)[O-] , please?
1.03

Recorded growth AUC for CC(C)OP(=O)(OC(C)C)SCc1ccccc1 , please?
1.03

---

# Tested on: Roseburia intestinalis
# measurement protocol: growth AUC relative to DMSO control (median of replicates) (fraction); higher = more growth (less inhibition), active = hit call of the paper
# condition notes: 20 µM; 24 h
quantity kind: growth AUC

INSERT INTO assay_data (compound, result) VALUES
  ('CC1(C)CCC(Cc2ccc(Cl)cc2)C1(O)Cn1cncn1 (stereo unspecified)', '0.943 (inactive)');

Recorded growth AUC for CCOCn1c(-c2ccc(Cl)cc2)c(C#N)c(Br)c1C(F)(F)F , please?
0.983 (inactive)

Recorded growth AUC for CCCCCCCCn1sccc1=O , please?
0.449 (active)

Recorded growth AUC for CC(=NCc1ccc(Cl)nc1)NC#N , please?
0.997 (inactive)

Recorded growth AUC for CCCCN(CCCC)SN(C)C(=O)Oc1cccc2c1OC(C)(C)C2 , please?
0.942 (inactive)

Recorded growth AUC for Clc1ccc(C2(Cn3cncn3)CC(Br)CO2)c(Cl)c1 (stereo unspecified) , please?
0.99 (inactive)

---

# System: Roseburia intestinalis
# measurement protocol: growth AUC relative to DMSO control (median of replicates) (fraction); higher = more growth (less inhibition), active = hit call of the paper
# condition notes: 20 µM; 24 h
quantity kind: growth AUC

As a guide, the following entries are already answered.
INSERT INTO measurements (compound, study_system, result) VALUES
  ('[Cl][Sn]([c]1ccccc1)([c]1ccccc1)[c]1ccccc1', 'Roseburia intestinalis', '0.0424 (active)'),
  ('COP(=O)(OC)OC(Br)C(Cl)(Cl)Br (centres undefined)', 'Roseburia intestinalis', '1.01 (inactive)'),
  ('COP(=O)(OC)Oc1ccc(S(C)=O)c(C)c1 (centres undefined)', 'Roseburia intestinalis', '1.01 (inactive)'),
  ('ClC1=C(Cl)C(Cl)(C2(Cl)C(Cl)=C(Cl)C(Cl)=C2Cl)C(Cl)=C1Cl', 'Roseburia intestinalis', '0.91 (inactive)'),
  ('CNC(=O)Oc1cccc2ccccc12', 'Roseburia intestinalis', '0.973 (inactive)'),
  ('CC(CCl)OP(=O)(OC(C)CCl)OC(C)CCl (mixture of isomers)', 'Roseburia intestinalis', '0.967 (inactive)'),
  ('CNC(=O)O/N=C/C(C)(C)S(C)(=O)=O', 'Roseburia intestinalis', '1.02 (inactive)'),
  ('CCC1(C(=O)NC(C)c2ccc(Cl)cc2)C(C)C1(Cl)Cl (centres undefined)', 'Roseburia intestinalis', '0.888 (inactive)'),
  ('CCOP(=S)(OCC)SCn1c(=O)oc2cc(Cl)ccc21', 'Roseburia intestinalis', '0.932 (inactive)'),
  ('CCCCC(C#N)(Cn1cncn1)c1ccc(Cl)cc1 (centres undefined)', 'Roseburia intestinalis', '0.94 (inactive)');

Recorded growth AUC for CCOP(=S)(OCC)Oc1nc(Cl)n(C(C)C)n1 , please?
1.02 (inactive)

Recorded growth AUC for COC(C)(C)CCCC(C)C/C=C/C(C)=C/C(=O)OC(C)C (centres undefined) , please?
1.01 (inactive)

Recorded growth AUC for O=c1oc2ccccc2c(O)c1C1CC(c2ccc(-c3ccc(Br)cc3)cc2)Cc2ccccc21 (centres undefined) , please?
0.345 (active)

---

# System: Bacteroides dorei
# measurement protocol: growth AUC relative to DMSO control (median of replicates) (fraction); higher = more growth (less inhibition), active = hit call of the paper
# condition notes: 20 µM; 24 h
quantity kind: growth AUC

Which measured growth AUC belongs to CCS(=O)(=O)c1cccnc1S(=O)(=O)NC(=O)Nc1nc(OC)cc(OC)n1 , tested on Bacteroides dorei?
0.993 (inactive)

Which measured growth AUC belongs to O=C(Cc1ccccc1)N/C(=N\OCC1CC1)c1c(C(F)(F)F)ccc(F)c1F , tested on Bacteroides dorei?
0.945 (inactive)

---

# Tested on: Bacteroides uniformis
# measurement protocol: growth AUC relative to DMSO control (median of replicates) (fraction); higher = more growth (less inhibition), active = hit call of the paper
# condition notes: 20 µM; 24 h
quantity kind: growth AUC
Answer with the value's number alone.

As a guide, the following entries are already answered.
INSERT INTO results (compound, numeric_readout) VALUES
  ('N#Cc1c[nH]cc1-c1cccc(Cl)c1Cl', 0.816),
  ('CCOc1cc(Oc2ccc(C(F)(F)F)cc2Cl)ccc1[N+](=O)[O-]', 0.992),
  ('CCS(=O)(=O)c1nc2ccccn2c1S(=O)(=O)NC(=O)Nc1nc(OC)cc(OC)n1', 0.989),
  ('CNC(=O)O/N=C(\C)C(C)S(C)=O (stereo unspecified)', 0.997),
  ('CC1(C)C(/C=C(\Cl)c2ccc(Cl)cc2)C1C(=O)OC(C#N)c1ccc(F)c(Oc2ccccc2)c1 (stereo unspecified)', 0.99),
  ('Cn1cc(-c2ccccc2)c(=O)c(-c2cccc(C(F)(F)F)c2)c1', 0.977);

Recorded growth AUC for CCSC(C)CC1CC(=O)C(/C(CC)=N/OC/C=C/Cl)=C(O)C1 (mixture of isomers) , please?
1.02

Recorded growth AUC for COCCN(C(=O)CCl)c1c(C)cccc1C , please?
0.973

Recorded growth AUC for CNC(=O)Oc1ccccc1OC(C)C , please?
0.979

Recorded growth AUC for O=C(Nc1ccccc1-c1ccc(Cl)cc1)c1cccnc1Cl , please?
0.966

Recorded growth AUC for O=[N+]([O-])c1ccc(O)c([N+](=O)[O-])c1 , please?
0.946

---

# Tested on: Bacteroides dorei
# measurement protocol: growth AUC relative to DMSO control (median of replicates) (fraction); higher = more growth (less inhibition), active = hit call of the paper
# condition notes: 20 µM; 24 h
Response key: Satisfied means growth AUC >= 1; Not satisfied means growth AUC < 1.

Could you verify whether the entry CCOP(=S)(OCC)Oc1cc(-c2ccccc2)on1 shows growth AUC of no less than 1?
Not satisfied

---

# Tested on: Bacteroides clarus
# measurement protocol: growth AUC relative to DMSO control (median of replicates) (fraction); higher = more growth (less inhibition), active = hit call of the paper
# condition notes: 20 µM; 24 h
growth AUC values by entry
Answer with the value's number alone.

As a guide, the following entries are already answered.
INSERT INTO results (compound, numeric_readout) VALUES
  ('CC(Cl)(Cl)C(=O)O', 1.02),
  ('CC(C)C1(C)N=C(c2nc3ccccc3cc2C(=O)O)NC1=O (centres undefined)', 1.02),
  ('CNC(=O)Oc1cc(C)c(S(C)=O)c(C)c1 (centres undefined)', 0.999),
  ('Cc1ccccc1[N+](=O)[O-]', 1),
  ('CNC1=C(c2cccc(C(F)(F)F)c2)C(=O)C(c2ccccc2)O1 (centres undefined)', 0.953),
  ('CCOP(=S)(OCC)Oc1ccc(=O)n(-c2ccccc2)n1', 0.943);

Recorded growth AUC for CC(C)CC(C)c1sccc1NC(=O)c1cn(C)nc1C(F)(F)F (centres undefined) , please?
0.94

Recorded growth AUC for CCOC(=O)c1ccccc1S(=O)(=O)NC(=O)Nc1nc(Cl)cc(OC)n1 , please?
1.03

Recorded growth AUC for CS(=O)(=O)NC(=O)c1cc(Oc2ccc(C(F)(F)F)cc2Cl)ccc1[N+](=O)[O-] , please?
0.955

Recorded growth AUC for CCS(=O)(=O)c1nc2ccccn2c1S(=O)(=O)NC(=O)Nc1nc(OC)cc(OC)n1 , please?
1.02

Recorded growth AUC for COP1(=S)OCc2ccccc2O1 (centres undefined) , please?
0.979

Recorded growth AUC for O=S1OCC2C(CO1)C1(Cl)C(Cl)=C(Cl)C2(Cl)C1(Cl)Cl (centres undefined) , please?
0.962

Recorded growth AUC for CNC(=O)Oc1cc(C)c(SC)c(C)c1 , please?
1

Recorded growth AUC for Cc1cnc2c(C(=O)O)c(Cl)ccc2c1 , please?
0.986

Recorded growth AUC for COC(=O)NCc1cc(/C(C)=N/OCc2cccc(C)n2)ccc1Cl , please?
0.947

Recorded growth AUC for CCOc1cc(C(C)(C)C)ccc1C1COC(c2c(F)cccc2F)=N1 (centres undefined) , please?
1

Recorded growth AUC for COP(=S)(OC)SCn1nnc2ccccc2c1=O , please?
0.977

Recorded growth AUC for ClC1=C(Cl)C2(Cl)[C@H]3[C@H]4O[C@H]4[C@H](Cl)[C@H]3C1(Cl)C2(Cl)Cl (single isomer, unassigned; isomer a) , please?
0.989

Recorded growth AUC for O=P(Oc1ccccc1)(Oc1ccccc1)Oc1ccccc1 , please?
0.958

Recorded growth AUC for CC(COc1ccc(Oc2ccccc2)cc1)Oc1ccccn1 (centres undefined) , please?
0.98

Recorded growth AUC for CCc1cccc(C)c1N(C(=O)CCl)[C@@H](C)COC , please?
0.99

Recorded growth AUC for CC1CNC(=S)N1 (centres undefined) , please?
1.03

Recorded growth AUC for CCCSP(=O)(OCC)SCCC , please?
1.02

Recorded growth AUC for Clc1ccc(Cl)c(Cl)c1 , please?
1.04
